Sourced from patent US6107489A

Sequence of the target: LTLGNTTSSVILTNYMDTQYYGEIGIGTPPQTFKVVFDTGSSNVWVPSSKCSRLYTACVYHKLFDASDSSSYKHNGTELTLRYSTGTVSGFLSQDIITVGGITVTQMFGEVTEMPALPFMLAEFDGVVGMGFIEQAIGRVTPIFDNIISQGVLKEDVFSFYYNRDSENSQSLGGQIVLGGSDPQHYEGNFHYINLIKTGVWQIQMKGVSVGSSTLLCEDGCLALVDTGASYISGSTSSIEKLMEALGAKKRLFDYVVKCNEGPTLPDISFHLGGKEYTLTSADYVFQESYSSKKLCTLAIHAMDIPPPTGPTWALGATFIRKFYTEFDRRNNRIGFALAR
PARAMETER: IC50

// query So what does the record say about IC50 for CC[C@H](C)CNC(=O)C[C@H](O)[C@H](CC1CCCCC1)NC(=O)[C@H](Cc1c[nH]cn1)NC(=O)[C@H](Cc1ccccc1)NC(=O)OC(C)(C)C [parent renin inhibitor, reference compound] ?
// result 4 to 19 nM
